- target-or-test-system: Mtb Dxr (Mycobacterium tuberculosis, UniProt P9WNS1)
- Sequence (P9WNS1 whole entry): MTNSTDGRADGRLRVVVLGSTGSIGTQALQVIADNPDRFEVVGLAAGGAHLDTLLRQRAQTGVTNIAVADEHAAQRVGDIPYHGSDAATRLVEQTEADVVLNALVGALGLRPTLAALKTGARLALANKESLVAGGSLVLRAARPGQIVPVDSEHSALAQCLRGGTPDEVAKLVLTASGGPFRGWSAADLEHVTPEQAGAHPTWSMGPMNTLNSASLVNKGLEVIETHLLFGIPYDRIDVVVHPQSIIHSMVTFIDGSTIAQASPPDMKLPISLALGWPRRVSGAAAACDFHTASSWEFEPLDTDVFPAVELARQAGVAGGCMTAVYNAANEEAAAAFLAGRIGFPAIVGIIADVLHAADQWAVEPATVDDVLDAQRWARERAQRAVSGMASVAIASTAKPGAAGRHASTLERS
- Assay type: biochemical
- experimental-conditions: read-out: Ki relative to NADPH
value-kind: pKi
Numbers only, as −log10 of the molar value.

IN: Record request: pKi value, item CC(=O)N(CCCP(=O)([O-])O)OCc1ccc2ccccc2c1.[Na+] [Compound 16j]
OUT: 4.75

###

- System: M. tuberculosis H37Rv
- assay-overview: microbe, parasite or virus in culture
- Assay type: cell-based, Mycobacterium tuberculosis
For each of the compounds below, state its M. tuberculosis MIC.

IN: Record request: M. tuberculosis MIC value, item CC(=O)N(CCCP(=O)([O-])O)OCc1ccc(-c2ccc(C(C)C)cc2)cc1.[Na+] [Compound 16p]
OUT: 100 (6.25–12.5) µg/mL

IN: Another compound: CC(=O)N(CCCP(=O)([O-])O)OCc1ccc(-c2ccccc2)cc1.[Na+] [Compound 16k]
OUT: 25 to 50 µg/mL

IN: Another compound: `O=C(CCC1CCCCC1)N(O)CCCP(=O)([O-])O.[Na+]`
OUT: >200 (25) µg/mL

IN: Another compound: `O=C(COc1ccc(Cl)cc1)N(O)CCCP(=O)([O-])O.[Na+]`
OUT: >200 (25) µg/mL

IN: Another compound: `O=C(c1ccccc1)N(O)CCCP(=O)([O-])O.[Na+]`
OUT: ≥200 µg/mL

Below is a list of compounds. For each, state its recorded M. tuberculosis MIC.
1. CC(=O)N(CCCP(=O)([O-])O)OCc1ccc(C(C)C)cc1.[Na+] [Compound 16d]
2. O=C(CCCc1ccccc1)N(O)CCCP(=O)([O-])O.[Na+]
3. NNC(=O)c1ccncc1 [INH, reference compound]
4. CC(=O)N(CCCP(=O)(OCOC(=O)C(C)(C)C)OCOC(=O)C(C)(C)C)OCc1ccc(C(C)C)cc1

OUT:
200 (25) µg/mL
>200 µg/mL
0.01 µg/mL
12.5 (6.25–12.5) µg/mL
